Data provenance: PubChem BioAssay AID488969

Target: Metabotropic glutamate receptor 8 (Rattus norvegicus)
Assay: mGluR8 Gi/Go-coupled signaling modulation – cell-based, rat, thallium flux, HTS, primary screen (AID 488969)
Conditions: HEK293 rat mGluR8, GIRK (G protein-gated inwardly rectifying potassium channel) thallium flux, FluoZin2; at 10 µM; stronger effect = higher value; submaximal glutamate (EC20) added with thallium
Whole data set: some 110,000 compounds, median “z-score” near -0.1, cut for the highest 2% near 2. Shown is part of a subset that was picked to be rich in the highest values.
Output YES for z-score not less than -0.2; output NO otherwise.

[[record]]
molecule = "Cc1ccccc1NC1C=CS(=O)(=O)C1 (stereo not given)"
class = "NO"

[[record]]
molecule = "O=C(Oc1ccc(Br)cc1C(=S)N1CCCCC1)c1cc([N+](=O)[O-])cc([N+](=O)[O-])c1"
class = "YES"

[[record]]
molecule = "COc1ccc(OC)c(-c2cc(C(F)(F)F)c3c(n2)sc2c(O)cc(=O)[nH]c23)c1"
class = "NO"

[[record]]
molecule = "O=c1cc(O)c2sc3nc(-c4ccccc4)cc(C(F)(F)F)c3c2[nH]1"
class = "NO"

[[record]]
molecule = "COCCC(=O)NC12CC3CC(CC(C3)C1)C2"
class = "NO"

[[record]]
molecule = "Cn1cccc1CNC1CCCCC1"
class = "YES"

[[record]]
molecule = "Cc1ccccc1C(=O)Oc1ccc(Br)cc1C(=S)N1CCCC1"
class = "NO"

[[record]]
molecule = "COc1ccc(C(=O)NC(=S)N2CCN(c3ccc([N+](=O)[O-])cc3)CC2)cc1"
class = "YES"

[[record]]
molecule = "COc1ccc(-c2cc(C(F)(F)F)c3c(n2)sc2c(O)cc(=O)[nH]c23)c(OC)c1"
class = "YES"

[[record]]
molecule = "CCC(C)(C)C1CCC(=NNC(=O)c2ccoc2C)CC1 (stereo not given)"
class = "NO"

[[record]]
molecule = "O=C(Nc1ccc(Br)c(C(F)(F)F)c1)c1ccccc1"
class = "YES"

[[record]]
molecule = "CCNC(=S)N1CCN(c2ccc([N+](=O)[O-])cc2)CC1"
class = "YES"

[[record]]
molecule = "O=C1c2cccc3cc(Br)cc(c23)C(=O)N1Nc1ccc(Br)cc1"
class = "NO"

[[record]]
molecule = "O=C(c1ccc(-n2cnnn2)cc1)N1CCCCC1"
class = "YES"

[[record]]
molecule = "CC(C)[C@H](NC(=O)c1ccccc1)C(=O)OCC(=O)N1CCCc2ccccc21"
class = "YES"

[[record]]
molecule = "CCOCC(=O)Nc1nc2c(s1)C(=O)CC(C)(C)C2"
class = "NO"

[[record]]
molecule = "C=CCNC(=S)N1CCN(c2ccc([N+](=O)[O-])cc2)CC1"
class = "YES"

[[record]]
molecule = "O=C(CNC(=O)c1cccc(F)c1)OCc1cc(=O)n2cc(Br)ccc2n1"
class = "NO"

[[record]]
molecule = "O=S(=O)(NCc1csc(-c2cccnc2)n1)c1ccc2c(c1)OCCO2"
class = "YES"

[[record]]
molecule = "CC(=O)N1c2c(cc(Br)cc2S(=O)(=O)NCC2COc3ccccc3O2)CC1C (stereo not given)"
class = "YES"

[[record]]
molecule = "CN1CCC(OC(=O)COc2ccc(C(C)(C)C)cc2)CC1"
class = "YES"

[[record]]
molecule = "CC(NC(=O)COC(=O)c1cc(NS(=O)(=O)c2ccc(Cl)c([N+](=O)[O-])c2)ccc1O)C1CC2CCC1C2 (stereo not given)"
class = "NO"

[[record]]
molecule = "O=C(c1ccc(O)cc1)c1ccc(Cl)cc1"
class = "NO"

[[record]]
molecule = "CCCCN1C(=O)c2ccccc2C1C(=O)NC1CCCC1 (stereo not given)"
class = "YES"

[[record]]
molecule = "Cc1ccccc1C(=NCCCN(C)C)c1ccccc1C"
class = "YES"

[[record]]
molecule = "CC(C)C(=O)Nc1nc2c(ncn2C2CC(O)C(CO)O2)c(=O)[nH]1 (stereo not given)"
class = "NO"

[[record]]
molecule = "O=c1cc(NCc2ccco2)c2ccccc2o1"
class = "NO"

[[record]]
molecule = "O=S(=O)(NCc1csc(-c2cccnc2)n1)c1ccc(Cl)s1"
class = "YES"

[[record]]
molecule = "CC1(C)CC(=O)c2sc(NC(=O)CN3CCOCC3)nc2C1"
class = "YES"

[[record]]
molecule = "Cc1c([N+](=O)[O-])cc(C(=O)Oc2ccc(Br)cc2C(=S)N2CCCCC2)cc1[N+](=O)[O-]"
class = "YES"

[[record]]
molecule = "COc1cccc(CNS(=O)(=O)c2cc(Br)cc3c2N(C(C)=O)C(C)C3)c1 (stereo not given)"
class = "YES"

[[record]]
molecule = "COc1ccc(C2(CNC(C)=O)CCOCC2)cc1OC"
class = "YES"

[[record]]
molecule = "CCN(CC)CC(=O)NC12CC3CC(CC(C3)C1)C2"
class = "YES"

[[record]]
molecule = "CCc1ccc(S(=O)(=O)NCCc2csc(-c3cccnc3)n2)s1"
class = "NO"

[[record]]
molecule = "O=C(NC1CCCCCC1)C1c2ccccc2C(=O)N1CCCN1CCOCC1 (stereo not given)"
class = "NO"

[[record]]
molecule = "Cc1cccc(Oc2ncc(-c3ccc(Cl)cc3)cn2)c1"
class = "YES"

[[record]]
molecule = "CCOC(=O)C1=C(C)NC(C)=C(C(=O)OCC)C1c1ccc(O)cc1"
class = "NO"

[[record]]
molecule = "COCCCN1C(=O)c2ccccc2C1C(=O)NC1CCCCCC1 (stereo not given)"
class = "YES"

[[record]]
molecule = "O=C(CSc1ccsc1[N+](=O)[O-])N1CCN(c2ccccc2)CC1"
class = "NO"

[[record]]
molecule = "O=S(=O)(NCCc1csc(-c2cccnc2)n1)c1ccc(Cl)s1"
class = "YES"

[[record]]
molecule = "CC1(C)CC(=O)c2sc(NC(=O)CN3C(=O)CCC3=O)nc2C1"
class = "YES"

[[record]]
molecule = "COc1ccc(S(=O)(=O)NCc2csc(-c3cccnc3)n2)cc1"
class = "YES"

[[record]]
molecule = "CC(C)(C)c1ccc(S(=O)(=O)NC(Cc2ccccc2)C(=O)O)cc1 (stereo not given)"
class = "YES"

